study.target: T1, KDM4B-DTD N960A (human, UniProt O94953 917-1031, N960A)
T1 construct: Human KDM4B double tudor domain, residues 917-1031 of UniProt O94953 (isoform 1); also called N960A variant; source: E. coli BL21 (DE3), purified (Ni-NTA)
T1 sequence (looked up): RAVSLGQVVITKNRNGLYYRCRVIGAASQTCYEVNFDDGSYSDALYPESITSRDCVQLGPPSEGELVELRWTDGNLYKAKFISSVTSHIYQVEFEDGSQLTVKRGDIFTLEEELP
protocol.notes: fluorescence polarisation; fluorescein-labelled histone peptide 3 nM, KDM4 DTD titrated 0.1-100 μM; 30 mM HEPES, 150 mM NaCl pH 7.4, 0.01% Triton X-100
measurement.setup: both partners purified
No end group written: not given here. Me3 = trimethyl-lysine
parameter: Kd (µM)
Express the result in µM but write the number alone.

Which Kd is reported for this binder? ARTK(Me3)QTARKSTGGK (also: fluorescein label, end not given here) [H3K4me3 peptide, fluorescein-labelled] 303
